Tested on: PC-3 prostate
Test: NCI-60 one-dose screen, 48 h (100 = growth as untreated, 0 = no growth, -100 = all killed)
Details: 10 µM
About 83,000 compounds went through this panel and 20% of them were active in at least one assay; those are over-represented in the sample as a whole.
METRIC_NAME: growth (%)
Field: numeric (%). Do not append units.

GET /values?item= CC/C(=C/c1ccc(OC)cc1)[N+](=O)[O-] &system= PC-3 prostate returns growth: 59.2

Kindly note: PC-3 prostate, CC[C@@H](C)[C@@H]1NC(=O)C(NC(=O)C(CC(C)C)N(C)C(=O)C2CCCN2C(=O)C(C)O)C(C)OC(=O)C(Cc2ccc(OC)cc2)N(C)C(=O)C2CCCN2C(=O)C(CC(C)C)NC(=O)C(C)C(=O)C(C(C)C)OC(=O)C[C@H]1O (some centres undefined) , growth value reported: -37.2

Note to self: growth of COc1ccccc1[As]=[As]c1ccccc1OC (centres undefined) with PC-3 prostate was -78.9

Test item COc1cc([N+](=O)[O-])c2ncccc2c1[N+](=O)[O-] ; PC-3 prostate; reported growth was 66.4

Bench note, PC-3 prostate: NC(=O)c1cc([N+](=O)[O-])c(Cl)c([N+](=O)[O-])c1Cl , growth reads 46.7

For C#CC1(O)CCC(C(C)(C)C)CC1 (centres undefined) on PC-3 prostate, measured growth was 97.1

The measured growth that Oc1c(I)cc(I)cc1I showed for PC-3 prostate is 93.1

Sample [Cl][Hg][c]1ccc2ccccc2c1 , system: PC-3 prostate. Its growth is -35.1

The observed growth for CCOP(=O)(OCC)/C(C#N)=C/c1ccc(Br)cc1 when tested with PC-3 prostate stands at 95.9

Reading of growth for O=[N+]([O-])c1cc[n+]([O-])c2ccccc12 with PC-3 prostate: -10.8

The reported growth value, PC-3 prostate, for O=[N+]([O-])c1ccc(N(CCO)CCO)c2c1no[n+]2[O-] reads -5.95

Result for CS(=N)(=O)CCC(N)C(=O)O (centres undefined) , tested on PC-3 prostate, growth: 89.8

Record for COC1CC2C=C(C)/C=C/C=C/C(=O)NC(c3ccccc3)C/C=C/CCC(O)CC(=O)C2=C1O (centres undefined) under target or system PC-3 prostate: growth reported as -91.1

The compound COS(=O)(=O)c1ccccc1 , tested on PC-3 prostate, showed growth of 102

C=C1C(=O)O[C@@H]2C[C@@H](C)[C@@H]3C=CC(=O)[C@@]3(C)[C@@H](O)[C@H]12 tested on PC-3 prostate gave growth: -62

Param item: Cc1ccc(NC(=O)CBr)cc1 ; param system: PC-3 prostate; output growth: 96.4

growth on PC-3 prostate for CN(C)CC1(N)C(=O)NC(=O)NC1=O is 93.5

Tested on PC-3 prostate, the item O=[N+]([O-])c1ccc(Br)c([N+](=O)[O-])c1 showed growth equal to 91.8

Entry CC(C)C1(NC(=O)C2CC3c4cccc5[nH]cc(c45)CC3N(C)C2)OC2(O)C3CCCN3C(=O)C(Cc3ccccc3)N2C1=O (centres undefined) under PC-3 prostate had growth of 81.1

Test item Oc1c(Cl)cc(Cl)c2ccccc12.[Cu+2] ; PC-3 prostate; reported growth was 88.4

Kindly note: PC-3 prostate, O=C(CBr)Nc1ccc(Cl)cc1 , growth value reported: 93.3

Item CC/C(=C/c1ccc(OC)cc1OC)[N+](=O)[O-] was tested on PC-3 prostate; the reported growth is 50

growth of CC(Cc1ccc2c(c1)OCO2)NN (centres undefined) , assay on PC-3 prostate, is 76.3

For O=S(=O)(F)c1ccc(Cl)cc1 on PC-3 prostate, measured growth was 91.4
